For each entry below, report its IC50 value.
Tested on: A549
PROTOCOL_NOTES: Antiproliferative activity against human A549 cells incubated for 72 hrs by MTT assay
Assay type: functional, cell-based
CONDITIONS_USED: A549, 72 h
One number for each entry, in µM.

Recorded IC50, per entry:
>>> df
                                chem_smiles  target_entity  readout_label  measured
0  O=[N+]([O-])c1ccc(COc2ccccc2Nc2ncnc3cc4c(cc23)OCCOCCO4)cc1           A549           IC50      28.4
1  CNC(=O)c1cc(Oc2ccc(NC(=O)Nc3ccc(Cl)c(C(F)(F)F)c3)cc2)ccn1           A549           IC50      25.7
2  FC(F)(F)c1ccc(COc2ccc(Nc3ncnc4cc5c(cc34)OCCOCCOCCO5)cc2)cc1           A549           IC50      30.7
3  O=[N+]([O-])c1ccc(COc2cccc(Nc3ncnc4cc5c(cc34)OCCOCCOCCOCCO5)c2)cc1           A549           IC50      19.8

Find the measured IC50: item "c1ccc(COc2cccc(Nc3ncnc4cc5c(cc34)OCCOCCO5)c2)cc1" , target or system A549.
7.59

Reference for the values: ChEMBL document CHEMBL4304802
